Value source: ChEMBL document CHEMBL3045524

- ASSAY PROCEDURE: Solubility of the compound in water
- Assay type: physicochemical
QUANTITY KIND: solubility (µg/mL)
A number alone suffices; assume µg/mL.

Give the reported value of solubility for this record: COCCOC(=O)C(C#N)(C(=O)c1ccccc1C(F)(F)F)c1ccc(C(C)(C)C)cc1 (racemic)
0.0281

###

- ASSAY PROCEDURE: Octanol-water partition co-efficient, log P of the compound
- Assay type: physicochemical
QUANTITY KIND: logP
Please respond with just the number, no unit label.

Give the reported value of logP for this record: COCCOC(=O)C(C#N)(C(=O)c1ccccc1C(F)(F)F)c1ccc(C(C)(C)C)cc1 (racemic)
4.3
